The measurements presented in this section are drawn from patent US20240018237A1.

Target: T1, human ROR1 (full-length, on the cell surface) (human, UniProt Q01973 30-937)
T1 construct: whole, on cells; the tumour cell lines carry their own ROR1; also called Ba/F3-ROR1 cells; Jeko-1
T1 sequence (Q01973 30-937): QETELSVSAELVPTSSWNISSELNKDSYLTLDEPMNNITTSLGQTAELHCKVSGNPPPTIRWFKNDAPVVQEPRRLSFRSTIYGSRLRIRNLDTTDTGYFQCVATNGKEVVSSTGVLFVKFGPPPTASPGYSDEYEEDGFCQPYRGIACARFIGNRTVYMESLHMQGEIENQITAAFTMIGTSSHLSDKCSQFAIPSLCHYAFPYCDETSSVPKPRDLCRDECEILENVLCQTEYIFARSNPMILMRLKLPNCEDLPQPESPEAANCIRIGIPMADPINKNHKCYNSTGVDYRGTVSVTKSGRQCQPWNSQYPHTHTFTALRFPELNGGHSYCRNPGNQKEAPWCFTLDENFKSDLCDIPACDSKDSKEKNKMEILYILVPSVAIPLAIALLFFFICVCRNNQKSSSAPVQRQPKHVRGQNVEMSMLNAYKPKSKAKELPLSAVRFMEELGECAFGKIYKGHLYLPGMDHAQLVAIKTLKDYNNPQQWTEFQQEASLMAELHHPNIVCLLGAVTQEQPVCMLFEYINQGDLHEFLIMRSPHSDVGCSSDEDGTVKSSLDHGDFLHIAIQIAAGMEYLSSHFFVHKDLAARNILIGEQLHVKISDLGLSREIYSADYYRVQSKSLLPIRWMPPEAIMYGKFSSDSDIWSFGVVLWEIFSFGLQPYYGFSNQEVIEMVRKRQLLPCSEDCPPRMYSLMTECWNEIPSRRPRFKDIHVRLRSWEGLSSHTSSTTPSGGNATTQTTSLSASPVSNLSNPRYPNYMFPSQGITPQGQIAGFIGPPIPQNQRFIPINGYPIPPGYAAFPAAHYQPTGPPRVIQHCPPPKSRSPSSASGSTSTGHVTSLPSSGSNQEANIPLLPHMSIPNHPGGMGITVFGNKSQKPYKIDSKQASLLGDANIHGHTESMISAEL
Assay: flow cytometry, HT-29 cells
OUTCOME MEASURE: EC50 (nM)

BINDER	ASSAY RESULT
19F6-Hu22 (antibody, human IgG1, kappa, V domains shown, humanized, human IgG1 / kappa) VH: QVQLQESGPGLVKPSETLSLTCTVSGYSITSDYAWNWIRQPPGKGLEWMGYISYSGSIRYNPSLKDRITISRDTSKNQFSLKLSSVTAADTAVYYCARGEITYYFDYWGQGTLVTVSS VL: DIQMTQSPSSLSASVGDRVTITCITTTDIDDDMNWYQQKPGKAPKLLISEGNTLQSGVPSRFSGSGYGTDFTLTISSLQPEDFATYYCLQSNDLPLTFGQGTKLEIKR	0.16
38F8-Hu17 (antibody, human IgG1, kappa, V domains shown, humanized, human IgG1 / kappa) VH: EVQLVESGGGLVQPGGSLRLSCTASGFTFSNYAMSWVRQAPGKGLEWVASISSGGPTYYADSVKGRFTVSRDNSRNTLYLQMNSLRAEDTAVYYCARGYRYDVNWYFDVWGRGTLVTVSS VL: DIQMTQSPSSLSASVGDRVTITCQASQDISNYLTWFQQKPGKSPKTLIHRANRLVTGVPSRFSGSGSGTDYTFTISSLQPEDIAIYYCLQYDEFPYTFGGGTKVEIKR	0.29
38F8-Hu68 (antibody, human IgG1, kappa, V domains shown, humanized, human IgG1 / kappa) VH: QVQLVESGGGLVKPGGSLRLSCAASGFTFSNYAMSWVRQAPEKRLEWVASISSGGPTYYPDSVKGRFTISRDNAKNSLYLQMNSLRAEDTAVYYCARGYRYDVNWYFDVWGAGTMVTVSS VL: DIQMTQSPSSLSASVGDRVTITCQASQDINSYLTWFQQKPGKSPKTLIHRANRLVTGVPSRFSGSGSGTDYTFTISSLQPEDIAIYYCLQYDEFPYTFGGGTKVEIKR	0.55
38F8-Hu26 (antibody, human IgG1, kappa, V domains shown, humanized, human IgG1 / kappa) VH: EVQLVESGGGLVQPGGSLRLSCAASGFTFSNYAMSWVRQAPGKGLEWVASISSGGPTYYPDSVKGRFTVSRDNSKNTLYLQMNSLRAEDTAVYYCARGYRYDVNWYFDVWGAGTMVTVSS VL: DIQMTQSPSSLSASVGDRVTITCQASQDINSYLTWFQQKPGKSPKTLIHRANRLVTGVPSRFSGSGSGTDFTFTISSLQPEDIATYYCLQYDEFPYTFGGGTKVEIKR	0.33
3D8-Hu95 (antibody, human IgG1, kappa, V domains shown, humanized, human IgG1 / kappa) VH: EVQLVESGGGLVQPGGSLRLSCAASGFTFSSYAMSWVRQAPEKRLEWVSSISNGGSTYYPDSVKGRFTISRDNSKNTLYLQMNSLRAEDTAVYYCARVNYYGYGDYAMDYWGQGTLVTVSS VL: DIQMTQSPSSLSASVGDRVTITCQASQDINSYLSWFQQKPGKAPKTLIYRANRLVTGVPSRFSGSGSGTDFTFTISSLQPEDIATYYCLQYDEFPYTFGGGTKLEIKR	0.36
38F8-Hu58 (antibody, human IgG1, kappa, V domains shown, humanized, human IgG1 / kappa) VH: EVQLVESGGGLVQPGGSLRLSCAASGFTFSNYAMSWVRQAPEKRLEWVASISSGGPTYYPDSVKGRFTVSRDNSKNTLYLQMNSLRAEDTAVYYCARGYRYDVNWYFDVWGAGTMVTVSS VL: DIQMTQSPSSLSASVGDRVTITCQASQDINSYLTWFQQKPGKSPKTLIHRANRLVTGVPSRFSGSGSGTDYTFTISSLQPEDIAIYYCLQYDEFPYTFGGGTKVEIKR	0.43
38F8-Hu18 (antibody, human IgG1, kappa, V domains shown, humanized, human IgG1 / kappa) VH: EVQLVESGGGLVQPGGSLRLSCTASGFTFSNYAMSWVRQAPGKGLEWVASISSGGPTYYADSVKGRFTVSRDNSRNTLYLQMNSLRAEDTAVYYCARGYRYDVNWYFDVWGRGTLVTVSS VL: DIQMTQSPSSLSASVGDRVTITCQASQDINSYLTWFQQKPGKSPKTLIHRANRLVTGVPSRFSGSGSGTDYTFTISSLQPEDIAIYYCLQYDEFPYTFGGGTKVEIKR	0.35
19F6-Hu35V2 (antibody, human IgG1, kappa, V domains shown, humanized, human IgG1 / kappa) VH: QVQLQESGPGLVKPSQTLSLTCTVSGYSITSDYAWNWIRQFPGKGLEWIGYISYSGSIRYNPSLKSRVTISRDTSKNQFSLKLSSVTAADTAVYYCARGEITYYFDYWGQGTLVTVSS VL: ETTLTQSPAFMSATPGDKVTISCKASTDIDSDMNWYQQKPGEPPKLIISEGNTLRPGIPPRFSSSGYGTDFTFTINKIKSEDAATYYCLQSNDLPLTFGQGTKLEIKR	0.18
3D8-Hu26 (antibody, human IgG1, kappa, V domains shown, humanized, human IgG1 / kappa) VH: EVQLVESGGGLVQPGGSLRLSCAASGFTFSSYAMSWVRQAPGKGLEWVASINSGGSTYYPDSVKGRFTISRDNAKNSLYLQMNSLRAEDTAVYYCARVNYYGYGDYAMDYWGQGTLVTVSS VL: DIQMTQSPSSLSASVGDRVTITCQASQDINSYLSWFQQKPGKSPKTLIYRANRLVTGVPSRFSGSGSGTDYTFTISSLQPEDIATYYCLQYDEFPYTFGGGTKLEIKR	0.26
19F6-Hu35V6 (antibody, human IgG1, kappa, V domains shown, humanized, human IgG1 / kappa) VH: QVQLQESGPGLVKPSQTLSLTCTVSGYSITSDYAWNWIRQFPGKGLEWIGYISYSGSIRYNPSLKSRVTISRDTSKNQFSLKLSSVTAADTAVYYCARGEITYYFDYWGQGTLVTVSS VL: ETTLTQSPAFMSATPGDKVTISCKASTDIDNDMNWYQQKPGKPPKLIISEGNTLRPGIPPRFSSSGYGTDFTFTINNIKSEDAATYYCLQSNDLPLTFGQGTKLEIKR	0.16
